FYI, the data here is from the supplement of paper PMC12632987.

Target: T1, TRAF2, Q12933
T1 chain: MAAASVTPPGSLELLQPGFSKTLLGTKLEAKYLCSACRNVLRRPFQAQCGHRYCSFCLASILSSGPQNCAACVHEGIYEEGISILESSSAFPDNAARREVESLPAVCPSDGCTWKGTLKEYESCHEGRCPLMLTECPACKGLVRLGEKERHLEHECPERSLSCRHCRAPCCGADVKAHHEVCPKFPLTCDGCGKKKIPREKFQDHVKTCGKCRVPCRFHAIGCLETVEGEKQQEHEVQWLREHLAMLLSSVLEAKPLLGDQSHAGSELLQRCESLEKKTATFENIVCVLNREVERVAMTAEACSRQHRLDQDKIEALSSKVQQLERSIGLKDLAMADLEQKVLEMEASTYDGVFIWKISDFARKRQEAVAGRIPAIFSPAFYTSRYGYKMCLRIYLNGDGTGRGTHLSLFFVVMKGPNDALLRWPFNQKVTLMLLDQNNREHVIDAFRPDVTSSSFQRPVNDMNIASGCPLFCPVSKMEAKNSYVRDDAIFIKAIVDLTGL
Assay: median log2 fold change of GCK-ALFA target abundance (FLAG IP / Myc IP barcode read proportion) (log2 ratio); each designed protein is fused to an ALFA-tag nanobody in HEK293 cells to bring the named protein to FLAG-tagged glucokinase (GCK); Myc marks an untargeted standard; higher = target protein stabilised (more abundant)
Details: target protein: 3xFLAG-MCP-GCK-ALFA reporter; HEK293 landing pad (RPLP)
In all, about 1,800 sequences were measured (“median log2 fold change of GCK-ALFA target abundance (FLAG IP / Myc IP barcode read proportion)”: median about 0.14, lowest 2% from about -0.84 on). This is one part of a sample in which the lowest values are shown more often than they occur.
# maps each entry to its median log2 fold change

Some solved entries appear below for comparison.
BINDER	MEASURED_PROPERTY	RESULT
traf2_out_13_95_1102 (protein) SRELAEEIMKIADEMIDKANEILEELLKIAKEKGVAEEEVKEALYLAEHRSIREAIHKLKELAKEYPELKEEFEEAIEKLEKLIEEAGKKVAELIKEEKE	median log2 fold change	-0.486
traf2_out_6_3_2512 (protein) EEEEERKRNEEALEEAAEMSLETIKIAAETTLKELEKAVEDPNATETDFLAYKSSLNLLLEIMKKHAEKHPEEKEEAEKFIEEMKKKLEELEKEWKKKRA	median log2 fold change	0.417
traf2_out_8_174_2572 (protein) DEEKRLKVVADFSTEMADILDEFEEELKKASDLPLEELKKKAEELKKEALEKIDKLKKEWEAKVDEETAKLVQRAANSAKQQIENMAKGAILRKELEDAA	median log2 fold change	0.209

Would you kindly look at the next entry?
Incoming: // Input: traf2_out_17_162_1558 (protein) SEIEKRWEKLKEELKELEKRVEALEKRLERLAELTPEEIRDLLVEASEVKRRALELAEEAEKLKEKIGEEEAQKLIDEANEIAERAQRIANTLYKALEKK . Output its median log2 fold change only.
Outgoing: 0.297
